FYI, the data here is from patent US20230019491A1.

- target.entity: IKKε (Homo sapiens, UniProt Q14164)
- Sequence (Q14164 whole entry, species assumed): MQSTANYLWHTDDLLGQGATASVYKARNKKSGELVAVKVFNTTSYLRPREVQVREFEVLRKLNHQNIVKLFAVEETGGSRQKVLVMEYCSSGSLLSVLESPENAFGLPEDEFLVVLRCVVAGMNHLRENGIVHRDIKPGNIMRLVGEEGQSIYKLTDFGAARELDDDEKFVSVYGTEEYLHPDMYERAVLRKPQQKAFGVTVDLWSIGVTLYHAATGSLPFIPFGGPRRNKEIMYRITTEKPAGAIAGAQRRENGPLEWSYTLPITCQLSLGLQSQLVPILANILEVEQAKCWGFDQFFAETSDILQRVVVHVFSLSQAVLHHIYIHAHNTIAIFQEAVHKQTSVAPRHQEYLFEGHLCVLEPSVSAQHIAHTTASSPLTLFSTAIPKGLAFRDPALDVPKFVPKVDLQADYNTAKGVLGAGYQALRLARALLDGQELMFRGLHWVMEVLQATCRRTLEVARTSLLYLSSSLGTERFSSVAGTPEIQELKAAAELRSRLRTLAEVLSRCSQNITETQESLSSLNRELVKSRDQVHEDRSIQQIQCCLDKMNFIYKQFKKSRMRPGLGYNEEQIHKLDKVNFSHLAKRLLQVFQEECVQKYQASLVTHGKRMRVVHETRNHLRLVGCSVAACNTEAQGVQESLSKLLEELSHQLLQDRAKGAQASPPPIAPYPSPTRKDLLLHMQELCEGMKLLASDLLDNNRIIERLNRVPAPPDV
- measurement.protocol: IKKε biochemical assay
- reported.conditions: 10 point 1:4 dose response, 30 uM top concentration, 90 min at 25° C., LabChip EZ Reader II; read-out: IKKε_IC50
Reported IC50 values follow for various compounds

Use the examples below as a reference point.
COc1nc(Nc2nccc(-c3ccc(OC4(C)CCN(C(=O)[C@H](C)O)CC4)c(C#N)c3)n2)ccc1N1CCN(C2COC2)CC1: 100 to 1000 nM
COc1cc(Nc2nccc(-c3cc(C#N)c(OC4CCOCC4)cn3)n2)ncc1C(=O)N(C)C: > 5000 nM

Field IC50 (IKKε (Homo sapiens, UniProt Q14164)), entry `COc1nc(Nc2nccc(-c3ccc(OC4CCOCC4)c(C#N)c3)n2)ccc1N1CCN(C)CC1` : < 100 nM

Field IC50 (IKKε (Homo sapiens, UniProt Q14164)), entry N#Cc1cc(-c2ccnc(Nc3ccc(N4CCN(C5COC5)CC4)cc3)n2)ccc1OC1CCNCC1(F)F (stereo not drawn) : < 100 nM

Field IC50 (IKKε (Homo sapiens, UniProt Q14164)), entry `COc1nc(Nc2nccc(-c3ccc(OC4(C)CCN(C(=O)[C@@H](O)CO)CC4)c(C#N)c3)n2)ccc1N1CCN(C2COC2)CC1` : < 100 nM

Field IC50 (IKKε (Homo sapiens, UniProt Q14164)), entry `CN(C)C(=O)c1ccc(Nc2nccc(-c3ccc(OC4CCOCC4)c(C#N)n3)n2)nc1` : 100 to 1000 nM

Field IC50 (IKKε (Homo sapiens, UniProt Q14164)), entry `COc1nc(Nc2nccc(-c3ccc(O[C@H]4CCNC[C@H]4F)c(C#N)c3)n2)ccc1N1CCN(C)CC1` : < 100 nM

Field IC50 (IKKε (Homo sapiens, UniProt Q14164)), entry COc1nc(Nc2nccc(-c3ccc(OC4CCOCC4F)c(C#N)c3)n2)ccc1N1CCN(C2COC2)CC1 (stereo not drawn) : < 100 nM

Field IC50 (IKKε (Homo sapiens, UniProt Q14164)), entry COc1nc(Nc2nccc(-c3ccc(OC4CCN(C(=O)[C@H](C)O)CC4(F)F)c(C#N)c3)n2)ccc1N1CCN(C)CC1 (stereo partly drawn) : < 100 nM

Field IC50 (IKKε (Homo sapiens, UniProt Q14164)), entry `COc1nc(Nc2nccc(-c3ccc(O[C@@H]4CCN(C(=O)[C@H](C)O)C[C@@H]4F)c(C#N)c3)n2)ccc1C1CCN(C2COC2)CC1` : < 100 nM

* * *

- target.entity: TBK1 (Homo sapiens)
- Sequence (Q9UHD2 whole entry, species assumed): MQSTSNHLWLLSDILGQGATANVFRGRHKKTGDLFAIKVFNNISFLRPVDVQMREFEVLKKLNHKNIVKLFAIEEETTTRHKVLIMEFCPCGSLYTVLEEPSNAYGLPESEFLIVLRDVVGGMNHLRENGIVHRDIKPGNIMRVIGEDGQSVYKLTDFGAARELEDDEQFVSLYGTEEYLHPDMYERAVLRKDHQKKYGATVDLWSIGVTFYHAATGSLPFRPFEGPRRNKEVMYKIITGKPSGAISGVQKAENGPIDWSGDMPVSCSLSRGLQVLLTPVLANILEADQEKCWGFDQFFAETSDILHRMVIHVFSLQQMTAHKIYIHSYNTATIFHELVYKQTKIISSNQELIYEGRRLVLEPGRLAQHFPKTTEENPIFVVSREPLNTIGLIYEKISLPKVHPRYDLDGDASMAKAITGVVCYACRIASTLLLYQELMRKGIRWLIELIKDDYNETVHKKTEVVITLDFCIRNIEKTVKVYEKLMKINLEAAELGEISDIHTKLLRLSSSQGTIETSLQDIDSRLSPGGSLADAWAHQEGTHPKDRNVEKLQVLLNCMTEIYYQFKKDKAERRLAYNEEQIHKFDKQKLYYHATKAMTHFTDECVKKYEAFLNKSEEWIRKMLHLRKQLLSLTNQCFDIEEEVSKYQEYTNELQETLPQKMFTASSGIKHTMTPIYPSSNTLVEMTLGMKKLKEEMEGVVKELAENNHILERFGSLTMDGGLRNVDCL
- measurement.protocol: TBK biochemical assay
- reported.conditions: 10 point 1:4 dose response, 30 uM top concentration, 90 min at 25° C., LabChip EZ Reader II; read-out: TBK1_IC50
Reported IC50 values follow for various compounds

COc1nc(Nc2nccc(-c3ccc(OC4CCNCC4(F)F)c(C#N)c3)n2)ccc1N1CCN(C)CC1 (stereo not shown): < 0.1 µM
COc1nc(Nc2nccc(-c3ccc(N4CC5(CCNCC5)C4)c(C#N)c3)n2)ccc1N1CCN(C2COC2)CC1: 0.1 to 1 µM
COc1nc(Nc2ncc(F)c(-c3ccc(OC4CCN(C(=O)C(C)O)CC4(F)F)c(C#N)c3)n2)ccc1C1CCN(C2COC2)CC1 (stereo not shown): < 0.1 µM
COc1nc(Nc2nccc(-c3ccc(OC4CCN(C(=O)CO)CC4)c(C#N)c3)n2)ccc1N1CCN(C)CC1: < 0.1 µM
COc1nc(Nc2nccc(-c3ccc(OC4CCN(C(=O)[C@@H](C)O)CC4(F)F)c(C#N)c3)n2)ccc1N1CCN(C)[C@@H](C)C1 (stereo partly shown): < 0.1 µM

// IC50 value for COc1nc(Nc2nccc(-c3ccc(OC4CCNCC4(F)F)c(C#N)c3)n2)ccc1N1CCN(C2COC2)CC1 (stereo not shown) : < 0.1 µM
